Where do these numbers come from? They come from patent US9233989B2.

Test system: MRSA DB 00026
Assignment: determine reported log10(MIC) for the given molecules.
In our notation, the value equals log10 of MIC in µg/mL.

Reference set, count: 5
C[Si]1(C)CCN(c2c(F)cc(N3C[C@H](CN)OC3=O)cc2F)CC1 [NDS-10054]; 1.20
C[Si]1(c2ccccc2)CCN(c2c(F)cc(N3C[C@H](CO)OC3=O)cc2F)CC1 [NDS-10071]; 1.20
COC(=O)NC[C@H]1CN(c2ccc(N3CC[Si](C)(C)CC3)c(F)c2)C(=O)O1 [NDS-10061]; 1.20
CCC(=O)NC[C@H]1CN(c2cc(F)c(N3CC[Si](C)(C)CC3)c(F)c2)C(=O)O1 [NDS-10056]; 1.51
C[Si]1(C)CCN(c2ccc(N3C[C@H](Cn4ccnn4)OC3=O)cc2F)CC1 [NDS-10060]; 1.20

Look at each molecule and report its log10(MIC).
1. COC(=O)NC[C@H]1CN(c2cc(F)c(N3CC[Si](C)(C)CC3)c(F)c2)C(=O)O1 [NDS-10053]
2. CC(=O)NC[C@H]1CN(c2ccc(N3CC[Si](C)(C)CC3)c(F)c2)C(=O)O1 [NDS-10024]

1.51
1.20

* * *

Entries with reported MIC on MRSA 562
Answers are plain numbers, in µg/mL.

Reference set, count: 2
C[Si]1(C)CCN(c2c(F)cc(N3C[C@H](CO)OC3=O)cc2F)CC1; 16
C[Si]1(c2ccccc2)CCN(c2c(F)cc(N3C[C@H](CN)OC3=O)cc2F)CC1; 32

Entry CC(=O)NC[C@H]1CN(c2ccc(N3CC[Si](C)(C)CC3)c(F)c2)C(=O)O1 : reported MIC = ? 16

* * *

Assignment: determine reported MIC for the given compounds.
System: MRSA 0-2657
Test: MIC by microbroth dilution method
Assay type: cell-based, S. aureus
Answers are plain numbers, in mg/L.

Reference set, count: 2
COC(=S)NC[C@H]1CN(c2ccc(N3CC[Si](C)(C)CC3)c(F)c2)C(=O)O1; 4
C[Si]1(C)CCN(c2ccc(N3C[C@H](CO)OC3=O)cc2F)CC1; 32

Look at each compound and report its MIC.
1. CCC(=O)NC[C@H]1CN(c2cc(F)c(N3CC[Si](C)(C)CC3)c(F)c2)C(=O)O1
2. CC(=O)NC[C@H]1CN(c2cc(F)c(N3CC[Si](C)(C)CC3)c(F)c2)C(=O)O1
3. COC(=O)NC[C@H]1CN(c2cc(F)c(N3CC[Si](C)(C)CC3)c(F)c2)C(=O)O1
4. CC(=O)NC[C@H]1CN(c2ccc(N3CCOCC3)c(F)c2)C(=O)O1 [Linezolid, reference compound]
5. CC(=O)NCC1CN(c2ccc(N3CC[Si](C)(C)CC3)c(F)c2)C(=O)O1 (centres unmarked)
6. CC(=O)NC[C@H]1CN(c2ccc(N3CC[Si](C)(C)CC3)c(F)c2)C(=O)O1

1. 16
2. 8
3. 8
4. 1
5. 16
6. 8

Look at each compound and report its MIC.
1. C[Si]1(C)CCN(c2ccc(N3C[C@H](Cn4ccnn4)OC3=O)cc2F)CC1
2. C[Si]1(C)CCN(c2c(F)cc(N3C[C@H](CN)OC3=O)cc2F)CC1
3. COC(=O)NC[C@H]1CN(c2ccc(N3CC[Si](C)(C)CC3)c(F)c2)C(=O)O1

[16, 16, 16]
